# Test system: Escherichia coli
# Experiment Summary: Antibacterial activity against aminoglycoside-resistant Escherichia coli TG1 pSF815 after 12 to 18 hrs
# Format: functional
Recorded MIC values for a group of compounds are listed next.
Observed Property: MIC (µg/mL)

[[record]]
input_smiles = "C[C@H]1O[C@@H](O[C@@H]2[C@@H](OCCO)[C@H](NC(=O)[C@@H](O)CCN)C[C@H](N)[C@H]2O[C@H]2O[C@H](CN)[C@@H](O)[C@H](O)[C@H]2N)[C@H](O)[C@@H](O)[C@@H]1N"
u = "µg/mL"
numeric_result = 8

[[record]]
input_smiles = "NC[C@H]1O[C@H](O[C@H]2[C@H](O[C@@H]3O[C@H](CO)[C@@H](O)[C@H]3O)[C@@H](O)[C@H](N)C[C@@H]2N)[C@H](N)[C@@H](O)[C@@H]1O"
u = "µg/mL"
numeric_result = 4

[[record]]
input_smiles = "C[C@H]1O[C@@H](O[C@@H]2[C@@H](OCCN)[C@H](NC(=O)[C@@H](O)CCN)C[C@H](N)[C@H]2O[C@H]2O[C@H](CN)[C@@H](O)[C@H](O)[C@H]2N)[C@H](O)[C@@H](O)[C@@H]1N"
u = "µg/mL"
numeric_result = 2

[[record]]
input_smiles = "C[C@H]1O[C@@H](O[C@@H]2[C@@H](O)[C@H](N)C[C@H](N)[C@H]2O[C@H]2O[C@H](CN)[C@@H](O)[C@H](O)[C@H]2N)[C@H](O)[C@@H](O)[C@@H]1N"
u = "µg/mL"
numeric_result = 8

[[record]]
input_smiles = "C[C@H]1O[C@@H](O[C@@H]2[C@@H](O)[C@H](NC(=O)[C@@H](O)CCN)C[C@H](N)[C@H]2O[C@H]2O[C@H](CN)[C@@H](O)[C@H](O)[C@H]2N)[C@H](O)[C@@H](O)[C@@H]1N"
u = "µg/mL"
numeric_result = 2


Data provenance is ChEMBL document CHEMBL1137524.
